# experiment summary: Cytotoxicity against african green monkey Vero cells after 16 hrs by MTT assay
# Format: cell-based, Chlorocebus sabaeus
# condition context: chlorocebus sabaeus, Vero cells
Measured CC50 at 16 h of individual entries

CCn1cc(C(=O)Nc2ccc(F)c(Cl)c2)c(=O)c2ccc(C(F)(F)F)cc21; > 20 µM
CCn1cc(C(=O)NCc2ccc(Cl)cc2)c(=O)c2ccc(C(F)(F)F)cc21; > 20 µM
CCOC(=O)C1CCN(c2cc3c(cc2F)c(=O)c(C(=O)NCc2ccc(Cl)cc2Cl)cn3CC)CC1; 10 µM
CCOC(=O)N1CCN(c2cc3c(cc2F)c(=O)c(C(=O)NCc2ccc(Cl)cc2Cl)cn3CC)CC1; > 20 µM
CCOC(=O)N1CCN(c2cc3c(cc2F)c(=O)c(C(=O)NCc2ccc(Cl)cc2Cl)cn3C2CC2)CC1; 15 µM

input: What CC50 at 16 h value was documented for this molecule, NC(=O)C1CCN(c2cc3c(cc2F)c(=O)c(C(=O)NCc2ccc(Cl)cc2Cl)cn3C2CC2)CC1 ?
output: > 20 µM

input: What about this molecule? C=CCN1[C@@H](c2ccc([N+](=O)[O-])cc2)C(C(=O)OCC)=C(O)C(C(=O)OCC)[C@@H]1c1ccc([N+](=O)[O-])cc1 (some centres not stated)
output: > 20 µM

* * *

# experiment summary: Selectivity index, CC50 for african green monkey Vero cells to EC50 for Measles virus hemagglutininin/F-mediated cell-cell fusion
# Type: toxicity, cell-based
# condition context: read-out: Ratio CC50/EC50
observation type: selectivity ratio
Returns: the value as a bare number; no unit string appended.

input: What selectivity ratio value was documented for this compound, Nc1ccc2oc(Cc3ccccc3)nc2c1 ?
output: 20
